- experiment_notes: in vitro
- experimental_context: human, uninfected MT-4 cells, CC50 (nM), same protocol as Test A, CellTiter-Glo
recorded_metric: log10 of CC50 at 5 days (log10 of the value in nM)
Plainly stated, the numbers are log10 of CC50 at 5 days given in nM.

What does the record list as log10 of CC50 at 5 days for O=C(Cn1nc(C(F)F)c2c1C(F)(F)C1CC21)N[C@@H](Cc1cc(F)cc(F)c1)c1ncncc1-c1cccc2[nH]cnc12 (stereo partly drawn) [Example 127C] ?
4.50

Another compound to look at: NC(=O)c1cc(-c2cccnc2[C@H](Cc2cc(F)cc(F)c2)NC(=O)Cn2cc(C(F)(F)F)nc2C2CCCC2)ccc1F [Example 107E]
4.63

Thanks! And NC(=O)c1cc(-c2cccnc2[C@H](Cc2cc(F)cc(F)c2)NC(=O)Cc2c[nH]c3ccc(C(F)(F)F)cc23)ccc1F [Example 54G] ?
4.01

And for NC(=O)c1cc(-c2cccnc2[C@H](Cc2cc(F)cc(F)c2)NC(=O)Cn2nc(C(F)F)c3c2C2CC2CC3(F)F)ccc1F (stereo partly drawn) [Example 304C] ?
3.23

// same read-out, input: O=C(Cn1nc(C(F)F)c2c1C(F)(F)CCC2(F)F)N[C@@H](Cc1cc(F)cc(F)c1)c1ncncc1-c1cnc2[nH]ccc2c1 [Example 288]
4.21

Subsequent entry: CC1CCCc2c1c(C(F)(F)F)nn2CC(=O)N[C@@H](Cc1cc(F)cc(F)c1)c1ncccc1-c1ccc(F)c(C(N)=O)c1 (stereo partly drawn) [Example 272F]
4.16

----------
- experiment_notes: in vitro
- experimental_context: human, uninfected MT-4 cells, CC50 (nM), same protocol as Test A, CellTiter-Glo
Lab note - cut at 30000 nM for CC50 at 5 days: Criterion met if strictly below, Criterion not met if not.

Identify whether the molecule CN(C)C(=O)c1cccc(-c2cccnc2[C@H](Cc2cc(F)cc(F)c2)NC(=O)Cc2c[nH]c3ccc(O)cc23)c1 records CC50 at 5 days below 30000 nM.
Criterion not met

Let us now turn to O=C(Cc1c[nH]c2ccc(F)cc12)N[C@@H](Cc1cc(F)cc(F)c1)c1ncccc1-c1cnc2[nH]ccc2c1
Criterion met

Input CC(C)c1cc(C(F)(F)F)nn1CC(=O)N[C@@H](Cc1cc(F)cc(F)c1)c1ncccc1-c1ccc(F)c(C(N)=O)c1
Criterion met

Same thing, different molecule: N#Cc1nn(CC(=O)N[C@@H](Cc2cc(F)cc(F)c2)c2ncccc2-c2ccc(F)c(C(N)=O)c2)c2c1CCC2 [Example 211C]
Criterion not met

Also NC(=O)c1cc(-c2cccnc2[C@H](Cc2cc(F)cc(F)c2)NC(=O)Cn2nc(C(F)F)c(Br)c2C(F)F)ccc1F [Example 555C] ?
Criterion met

Continue with O=C(Cn1nc(C(F)F)c2c1C(F)(F)C1CC21)N[C@@H](Cc1cc(F)cc(F)c1)c1ncccc1-c1ccc2ccncc2c1 (stereo partly shown)
Criterion met

// next record NS(=O)(=O)c1cccc(-c2cncnc2[C@H](Cc2cc(F)cc(F)c2)NC(=O)Cc2c[nH]c3ccc(O)cc23)c1 [Example 295B]
Criterion not met

----------
- experiment_notes: in vitro
- experimental_context: human, uninfected MT-4 cells, CC50 (nM), same protocol as Test A, CellTiter-Glo
# note: exactly 30000 nM is not below, so it is N; use Y for CC50 at 5 days strictly under it

Please let me know if CC(C)c1cc(C(=O)O)nn1CC(=O)N[C@@H](Cc1cc(F)cc(F)c1)c1ncccc1-c1ccc(F)c(C(N)=O)c1 shows CC50 at 5 days below 30000 nM.
N

Repeat with NC(=O)c1cc(-c2cccnc2[C@H](Cc2cc(F)cc(F)c2)NC(=O)Cn2cc(C(F)(F)F)nc2COCc2ccccc2)ccc1F [Example 91B]
Y

Same question, O=C(Cn1nc(C(F)F)cc1C(F)F)N[C@@H](Cc1cc(F)cc(F)c1)c1ncccc1-c1cnc2[nH]ccc2c1 [Example 512C] this time
Y

Record: Cc1ccccc1-c1ccnc(C(Cc2ccccc2)NC(=O)Cc2c[nH]c3ccc(O)cc23)n1 (stereo not shown)
N

Also, NC(=O)c1cc(-c2cccnc2[C@H](Cc2cc(F)cc(F)c2)NC(=O)Cc2c[nH]c3ccc(F)cc23)ccc1Cl please.
Y

What do we get for NC(=O)c1cc(-c2cccnc2[C@H](Cc2cc(F)cc(F)c2)NC(=O)Cn2nc(C(F)(F)F)c3c2C(=O)CC3)ccc1F [Example 281C] ?
Y

What do you have for NC(=O)c1cc(-c2cccnc2[C@H](Cc2cc(F)cc(F)c2)NC(=O)Cc2nc3cccc4c3n2CCC4)ccc1F [Example 152D] ?
Y

----------
- experiment_notes: in vitro
- experimental_context: human, uninfected MT-4 cells, CC50 (nM), same protocol as Test A, CellTiter-Glo
recorded_metric: CC50 at 5 days (nM)
Numeric only. Scale: nM

Could you share which CC50 at 5 days value was measured for NC(=O)c1cc(-c2cccnc2[C@H](Cc2cc(F)cc(F)c2)NC(=O)Cn2nc(C=O)c3c2C2CCC3C2)ccc1F (stereo partly shown) ?
10500

Same question, Cc1cc2ccccc2n1CC(=O)N[C@@H](Cc1cc(F)cc(F)c1)c1ncccc1-c1ccc(F)c(C(N)=O)c1 this time
13400

Also need COc1ccc(-c2cccnc2[C@H](Cc2ccccc2)NC(=O)Cn2nc(C(F)(F)F)c3c2CCCC3)cc1 , thanks.
15500

What about NC(=O)c1cc(-c2cccnc2[C@H](Cc2cccc(F)c2)NC(=O)Cn2nc(C(F)(F)F)c3c2CCCC3)ccc1F ?
18600

Check COc1ccc(-c2cccnc2[C@H](Cc2cc(F)cc(F)c2)NC(=O)Cc2c[nH]c3ccc(NS(C)(=O)=O)cc23)cc1 [Example 35G] too.
22400

CCNCc1cn(CC(=O)N[C@@H](Cc2cc(F)cc(F)c2)c2ncccc2-c2ccc(F)c(C(N)=O)c2)nc1C(F)(F)F , same question.
23600

How about NC(=O)c1cc(-c2cccnc2[C@H](Cc2cc(F)cc(F)c2)NC(=O)Cn2nc(C(F)(F)F)c3c2C(F)(F)CC3)ccc1F [Example 283C] ?
24400

Same thing, different molecule: O=C(Cn1nc(C(F)F)c2c1C(F)(F)C1CC21)N[C@@H](Cc1cc(F)cc(F)c1)c1ncccc1-c1cncc2ccccc12 (stereo partly shown)
13800

Okay, and COc1ccc2[nH]cc(CC(=O)NC(Cc3cc(F)cc(F)c3)c3nccnc3-c3ccc(Cl)cc3)c2n1 (stereo not shown) ?
11100

Consider next the molecule NC(=O)c1cc(-c2cccnc2[C@H](Cc2cc(F)cc(F)c2)NC(=O)Cn2nc(C(F)F)c3c2CC2CC32)ccc1F (stereo partly shown) [Example 198] in the same way.
45900

Let us now turn to CC1(O)CCCc2c(C(F)F)nn(CC(=O)N[C@@H](Cc3cc(F)cc(F)c3)c3ncccc3-c3ccc(F)c(C(N)=O)c3)c21 (stereo partly shown) [Example 349B]
40800

And CNC(=O)c1ccc(-c2cccnc2[C@H](Cc2cc(F)cc(F)c2)NC(=O)Cc2c[nH]c3ccc(F)cc23)cc1Cl ?
21100

----------
- experiment_notes: in vitro
- experimental_context: human, uninfected MT-4 cells, CC50 (nM), same protocol as Test A, CellTiter-Glo
CC50 at 5 days vs 20000 nM: less than gives satisfied; not less than gives not satisfied.

Confirm or reject: CC50 at 5 days of CC(C)c1cc(C(=O)NC2CC2)n(CC(=O)N[C@@H](Cc2cc(F)cc(F)c2)c2ncccc2-c2ccc(F)c(C(N)=O)c2)n1 lies strictly below 20000 nM
not satisfied

Thanks! And CN1CCc2c(c(C(F)(F)F)nn2CC(=O)N[C@@H](Cc2cc(F)cc(F)c2)c2ncccc2-c2ccc(F)c(C(N)=O)c2)C1 ?
not satisfied

Can you check NC(=O)c1cc(-c2cccnc2[C@H](Cc2cc(F)cc(F)c2)NC(=O)CC2C(=O)Nc3ccc(F)cc32)ccc1F (stereo partly shown) next?
not satisfied

And CC1(C)OB(c2cn(CC(=O)N[C@@H](Cc3cc(F)cc(F)c3)c3ncccc3-c3ccc(F)c(C(N)=O)c3)nc2C(F)(F)F)OC1(C)C [Example 451B] ?
not satisfied

Same thing, different compound: NC(=O)c1cc(-c2cccnc2[C@H](Cc2cc(F)cc(F)c2)NC(=O)Cn2nc(C(F)(F)F)c3c2COC3)ccc1F
not satisfied

Ok, now NC(=O)c1cc(-c2cccnc2[C@H](Cc2cc(F)cc(F)c2)NC(=O)Cn2nc(C(F)(F)F)c3c2CCC3=O)ccc1F [Example 492B]
not satisfied

Same for Cc1cc2ncn(CC(=O)N[C@@H](Cc3cc(F)cc(F)c3)c3ncncc3-c3ccc(Cl)cc3)c2cc1C
satisfied

Please give the result for O=C(Cn1nc(C(F)F)c2c1C(F)(F)C1CC21)N[C@@H](Cc1cc(F)cc(F)c1)c1ncccc1-c1cccc2ncccc12 (stereo partly shown) too.
satisfied

// same read-out, input: CC(C)(C)OC(=O)N1C[C@H](OCc2ccccc2)C[C@H]1C(=O)N[C@@H](Cc1cc(F)cc(F)c1)c1ncccc1-c1ccc(F)c(C(N)=O)c1
not satisfied

Note, next up: NC(=O)c1cc(-c2cccnc2[C@H](Cc2cccc(F)c2)NC(=O)Cn2c(=O)[nH]c3ccccc32)ccc1F
not satisfied

Can you check O=C(Cn1nc(C(F)F)cc1C(F)F)N[C@@H](Cc1cc(F)cc(F)c1)c1ncccc1-c1ccc(S(=O)(=O)N2CCOCC2)cc1 next?
not satisfied

Again, but for NC(=O)c1cc(-c2cccnc2[C@H](Cc2cc(F)cc(F)c2)NC(=O)[C@@H]2CC[C@H](c3ccccc3)N2)ccc1F
not satisfied

# iterate: CC(=O)N1Cc2c(C(F)(F)F)nn(CC(=O)N[C@@H](Cc3cc(F)cc(F)c3)c3ncccc3-c3ccc(F)c(C(N)=O)c3)c2C1
not satisfied
